// provenance: the supplement of paper PMC10307832

system: HOP-62; test: relative viability (nuclei count vs DMSO), 5 days (fraction); higher = more cells survive; conditions: first compound 0.8 µM
value-kind: relative viability
Reply with the value as a number alone.

compound | readout-value
O=c1cc(-c2cccc3c2Sc2ccccc2S3)oc(N2CCOCC2)c1 + C[C@]1(O)C[C@@H](c2nc(-c3ccc4ccc(-c5ccccc5)nc4c3)c3c(N)nccn32)C1 [Linsitinib] (partner 1 µM) | 1.01
COc1nc(C)cnc1NS(=O)(=O)c1cccnc1-c1ccc(-c2nnco2)cc1 [Zibotentan] + CC(C)C[C@H](NC(=O)[C@H](Cc1ccccc1)NC(=O)c1cnccn1)B(O)O [Bortezomib] (partner 0.002 µM) | 1.08
COc1nc(C)cnc1NS(=O)(=O)c1cccnc1-c1ccc(-c2nnco2)cc1 [Zibotentan] + Nc1nc2[nH]cc(CCc3ccc(C(=O)N[C@@H](CCC(=O)O)C(=O)O)cc3)c2c(=O)[nH]1 [Pemetrexed] (partner 0.2 µM) | 0.281

The record that follows has no relative viability shown yet.
Give its relative viability value. Item: O=c1cc(-c2cccc3c2Sc2ccccc2S3)oc(N2CCOCC2)c1 + Nc1ncn([C@H]2C[C@H](O)[C@@H](CO)O2)c(=O)n1 [Decitabine] (partner 2 µM) 0.187
